test-target: T1, Brn2 DNA-binding domain (BD-Brn2) (Mus musculus (B6), UniProt P31360 336-435)
T1 sequence: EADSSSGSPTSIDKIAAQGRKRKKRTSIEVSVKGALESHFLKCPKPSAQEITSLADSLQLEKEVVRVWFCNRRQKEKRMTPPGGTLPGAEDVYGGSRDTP
assay-overview: EMSA; 10% glycerol, 20 mM HEPES pH 7.8, 45 mM KCl, 10 mM NaCl, 1 mM EDTA, 1 mM DTT, 0.2 ug/uL BSA, 0.1% NP-40, 50 ng poly-dIdC; 20 ng each GST protein; room temperature 30 min (heterodimers 4 C); 6% PAGE 0.25x TBE
recorded-conditions: protein: recombinant; tags: GST (N-terminal, pGEX-6P-1); label: 32P-dCTP fill-in of the 5' (dG)5 overhangs of both strands (Methods; control probes are given with GGG)
endpoint: binding result

binder	observed-measurement
48 (dsDNA) DNA 1: GGGGGATGAAATGGCTAAATCCTTTTTTTGTTGTTTGTTCCCCC DNA 2: GGGGGAACAAACAACAAAAAAAGGATTTAGCCATTTCATCCCCC	no binding
121 (dsDNA) DNA 1: GGGGGGTGCTCAATTTGTGTTAGCTATTACTAGCAAGTCATTAACTCACCCCCC DNA 2: GGGGGGTGAGTTAATGACTTGCTAGTAATAGCTAACACAAATTGAGCACCCCCC	binds
84 (dsDNA) DNA 1: GGGGGTATGAATCACAATGTAAATATCTGTGTTTACCCCC DNA 2: GGGGGTAAACACAGATATTTACATTGTGATTCATACCCCC	no binding
44 (dsDNA) DNA 1: GGGGGAAACCATGGGGGGTGGGCTGTAAACACAAAAAGGATTCCCCCC DNA 2: GGGGGGAATCCTTTTTGTGTTTACAGCCCACCCCCCATGGTTTCCCCC	no binding
100 (dsDNA) DNA 1: GGGGGCAACCAAAAAAAATGTATTTTACAAAAATCACAACCCCC DNA 2: GGGGGTTGTGATTTTTGTAAAATACATTTTTTTTGGTTGCCCCC	no binding
116 (dsDNA) DNA 1: GGGGGAAGGCCAGACTAATCTACAAAGTGAGTTCCCCCC DNA 2: GGGGGGAACTCACTTTGTAGATTAGTCTGGCCTTCCCCC	no binding
51 (dsDNA) DNA 1: GGGGGGTCCGGCTTTTGTTGATTTGCTTATCTATCCCCC DNA 2: GGGGGATAGATAAGCAAATCAACAAAAGCCGGACCCCCC	no binding
59 (dsDNA) DNA 1: GGGGGAGCTTTTAACAATTTAATTTTGTCTCTACCTCCCCC DNA 2: GGGGGAGGTAGAGACAAAATTAAATTGTTAAAAGCTCCCCC	binds
